The measured values listed here are drawn from patent US20220380459A1.

target: T1, human CD33 extracellular domain (human, UniProt P20138 18-259); test: SPR, Fab captured, 37C;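 note: fabs captured on an anti-Fab surface, soluble monomeric CD33 ECD flowed over at several concentrations, double-referenced curves fit to a 1:1 binding model, KD taken as koff/kon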
T1 construct: soluble monomeric ECD; also called human CD33 ECD; hCD33
VALUE KIND: koff (s⁻¹)
The reply should be a number in s⁻¹, with the unit left off.

# example entries with known answers
# BINDER, koff [s⁻¹]
rows = [
    ("ADI-11819 Fab (Fab, V domains shown, Fab fragment; also called Ab8) VH: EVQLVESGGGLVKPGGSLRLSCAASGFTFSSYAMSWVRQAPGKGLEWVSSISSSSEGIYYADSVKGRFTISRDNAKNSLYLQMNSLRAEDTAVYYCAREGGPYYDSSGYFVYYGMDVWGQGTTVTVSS VL: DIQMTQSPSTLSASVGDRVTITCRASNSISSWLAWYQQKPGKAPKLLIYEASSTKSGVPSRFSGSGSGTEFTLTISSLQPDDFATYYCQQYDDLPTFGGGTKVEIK", "5.65e-05"),
    ("ADI-10177 Fab (Fab, V domains shown, Fab fragment; also called Ab2) VH: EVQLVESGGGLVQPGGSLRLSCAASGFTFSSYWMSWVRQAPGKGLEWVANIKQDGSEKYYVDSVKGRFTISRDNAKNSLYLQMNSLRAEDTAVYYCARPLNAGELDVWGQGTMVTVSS VL: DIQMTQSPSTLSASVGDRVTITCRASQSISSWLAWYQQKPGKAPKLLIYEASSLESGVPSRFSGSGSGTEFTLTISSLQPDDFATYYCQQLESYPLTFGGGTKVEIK", 0.00636),
]

State its koff: ADI-11815 Fab (Fab, V domains shown, Fab fragment; also called Ab7) VH: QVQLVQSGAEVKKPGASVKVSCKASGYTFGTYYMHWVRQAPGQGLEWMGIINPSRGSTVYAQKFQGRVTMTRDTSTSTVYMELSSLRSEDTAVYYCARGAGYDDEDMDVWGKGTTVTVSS VL: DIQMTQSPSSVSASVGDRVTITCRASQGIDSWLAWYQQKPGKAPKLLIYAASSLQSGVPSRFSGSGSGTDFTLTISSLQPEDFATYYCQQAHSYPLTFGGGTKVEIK
7.91e-05

State its koff: ADI-10164 Fab (Fab, V domains shown, Fab fragment; also called Ab18) VH: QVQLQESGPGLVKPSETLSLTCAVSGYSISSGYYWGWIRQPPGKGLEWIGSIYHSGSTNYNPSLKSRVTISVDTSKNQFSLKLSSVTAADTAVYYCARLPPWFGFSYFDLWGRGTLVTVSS VL: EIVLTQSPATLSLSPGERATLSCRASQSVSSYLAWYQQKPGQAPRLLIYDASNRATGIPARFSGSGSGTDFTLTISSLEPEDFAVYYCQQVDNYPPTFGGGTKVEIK
0.0101
